# tested.on: Androgen receptor (Homo sapiens)
# experimental.conditions: lncap
# Sequence (P10275 whole entry, looked up): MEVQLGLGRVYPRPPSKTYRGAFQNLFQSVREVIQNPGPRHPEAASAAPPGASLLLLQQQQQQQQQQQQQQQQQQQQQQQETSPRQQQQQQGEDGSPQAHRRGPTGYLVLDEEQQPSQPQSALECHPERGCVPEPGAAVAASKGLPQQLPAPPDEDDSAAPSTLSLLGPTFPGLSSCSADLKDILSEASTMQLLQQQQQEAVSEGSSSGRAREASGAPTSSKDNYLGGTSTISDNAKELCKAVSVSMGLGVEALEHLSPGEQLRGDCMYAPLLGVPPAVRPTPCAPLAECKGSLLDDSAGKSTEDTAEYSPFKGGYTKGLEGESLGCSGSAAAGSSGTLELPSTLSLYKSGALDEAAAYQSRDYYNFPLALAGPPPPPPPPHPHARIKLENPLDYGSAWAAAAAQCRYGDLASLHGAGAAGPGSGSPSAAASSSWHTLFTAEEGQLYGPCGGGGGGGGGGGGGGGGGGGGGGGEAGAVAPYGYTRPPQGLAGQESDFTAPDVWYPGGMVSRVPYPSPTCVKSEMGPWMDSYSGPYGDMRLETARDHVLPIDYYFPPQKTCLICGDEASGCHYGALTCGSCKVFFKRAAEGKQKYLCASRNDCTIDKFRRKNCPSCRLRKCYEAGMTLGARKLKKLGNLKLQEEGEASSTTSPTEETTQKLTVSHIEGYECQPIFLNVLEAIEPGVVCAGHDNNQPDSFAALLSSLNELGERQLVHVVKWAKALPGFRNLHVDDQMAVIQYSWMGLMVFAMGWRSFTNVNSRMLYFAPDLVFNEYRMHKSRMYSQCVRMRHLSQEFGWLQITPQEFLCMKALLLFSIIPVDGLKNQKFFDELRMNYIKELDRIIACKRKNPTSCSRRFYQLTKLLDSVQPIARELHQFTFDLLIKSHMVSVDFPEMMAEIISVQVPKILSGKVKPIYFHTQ
# Description: In vitro antagonistic activity against mutant androgen receptor of LNCap cells
// pIC50 lookup, one value per entry
The value called pIC50 is obtained by taking minus log10 of the concentration in mol/L.

Sample answers from the record:
smiles=CCCCc1ccc(C(=O)N2C[C@@H]3C[C@H]2[C@@H]2C(=O)N(c4ccc([N+](=O)[O-])cc4)C(=O)N32)cc1 value_reported=5.32
smiles=N#Cc1ccc(N2C(=O)[C@H]3[C@@H]4C[C@@H](CN4C(=O)c4ccccc4)N3C2=O)cc1C(F)(F)F value_reported=5.59
smiles=CCCCc1ccc(C(=O)N2C[C@@H]3C[C@H]2[C@@H]2C(=O)N(c4ccc(C#N)cc4)C(=O)N32)cc1 value_reported=5.17
smiles=N#Cc1ccc(N2C(=O)[C@H]3[C@@H]4C[C@@H](CN4C(=O)Oc4ccc(F)cc4)N3C2=O)cc1C(F)(F)F value_reported=5.41
smiles=CC(C)(C)OC(=O)N1C[C@@H]2C[C@H]1[C@H]1C(=O)N(c3ccc([N+](=O)[O-])c4ccccc34)C(=O)N21 value_reported=5.23

Query string: What pIC50 value was documented for this compound, CC(C)(C)OC(=O)N1C[C@@H]2C[C@H]1[C@@H]1C(=O)N(c3ccc(C#N)c(C(F)(F)F)c3)C(=O)N21 ?
Result string: 5.36

* * *

What follows is a record of pIC50 for Androgen receptor (Homo sapiens, UniProt P10275).
In textbook form, pIC50 equals minus log to base ten of the concentration in mol/L.

Query string: What pIC50 value was documented for this molecule, CC(C)(C)OC(=O)N1C[C@@H]2C[C@H]1[C@@H]1C(=O)N(c3ccc(C#N)cc3)C(=O)N21 ?
Result string: 5.60

Query string: Also CCCCc1ccc(C(=O)N2C[C@@H]3C[C@H]2[C@@H]2C(=O)N(c4ccc([N+](=O)[O-])cc4)C(=O)N32)cc1 ?
Result string: 7.22

Query string: What do you have for N#Cc1ccc(N2C(=O)[C@H]3[C@@H]4C[C@@H](CN4C(=O)c4ccccc4)N3C2=O)cc1C(F)(F)F ?
Result string: 6.52

* * *

Property: IC50; scope: individual compounds
# tested.on: Androgen receptor (Homo sapiens, UniProt P10275)
# experimental.conditions: lncap

smiles=CC(C)(C)OC(=O)N1C[C@@H]2C[C@H]1[C@H]1C(=O)N(c3ccc(C#N)c(C(F)(F)F)c3)C(=O)N21 value_reported="> 5 µM"
smiles=O=C1[C@@H]2[C@@H]3CC[C@@H](C3)[C@@H]2C(=O)N1c1ccc([N+](=O)[O-])c(C(F)(F)F)c1 value_reported="> 5 µM"

Query string: Any idea what its IC50 is? The compound is O=C1[C@H]2[C@H]3CC[C@H](C3)N2C(=O)N1c1ccc([N+](=O)[O-])c2ccccc12
Result string: > 5 µM
